Value source: paper PMC10460844

Reported HPLC elution values follow for various compounds
experiment-summary: Analytical reversed-phase HPLC elution (hydrophobicity)
Assay type: physicochemical
measurement-conditions: Table S1; analytical RP-HPLC, SunFire C18, water/ACN + 0.1% TFA, 5 to 100% B linear over 30 min, 1 mL/min, UV 220 nm; approximate comparison of hydrophobicity
Protocol: 7. HPLC chromatogram, retention time (tR), and LC-MS data HPLC analysis of peptoids was conducted using a Waters HPLC system equipped with a Waters 2489 UV/Visible Detector, 1525 Binary HPLC Pump, 2707 Autosampler, 5CH column oven, and a C18 column (SunFire C18, 4.6 × 250 mm, 5 μm; Waters Corp., Milford, MA, USA). The mobile phases were deionized water (A, with + 0.1% TFA) and acetonitrile (ACN; B, with + 0.1% TFA). […] The sample was detected by measuring absorbance at 220 nm. […]
Square brackets hold non-standard residues; d marks the D form. Peptide text beside a SMILES is read from it. Gly(N(CH2)2(3-indolyl)) = O=C(O)CNCCc1c[nH]c2ccccc12; Nspe = C[C@H](NCC(=O)O)c1ccccc1; Nlys = NCCCCNCC(=O)O
Respond numerically; units are % MeCN and should not be typed.

C[C@@H](c1ccccc1)N(CC(N)=O)C(=O)CN(CCCCN)C(=O)CN(C(=O)CN(CCCCN)C(=O)CN(CCCCN)C(=O)CN(C(=O)CN(C(=O)CN(CCCCN)C(=O)CN(C(=O)CN(C(=O)CNCCCCN)[C@@H](C)c1ccccc1)[C@@H](C)c1ccccc1)[C@@H](C)c1ccccc1)[C@@H](C)c1ccccc1)[C@@H](C)c1ccccc1; 46.1
C[C@@H](c1ccccc1)N(CC(=O)N(CCCCN)CC(=O)N(CC(=O)N(CC(=O)N(CCCCN)CC(=O)N(CC(=O)N(CC(=O)N(CCCCN)CC(=O)N(CC(=O)N(CCc1c[nH]c2ccccc12)CC(N)=O)[C@@H](C)c1ccccc1)[C@@H](C)c1ccccc1)[C@@H](C)c1ccccc1)[C@@H](C)c1ccccc1)[C@@H](C)c1ccccc1)C(=O)CN(CCc1c[nH]c2ccccc12)C(=O)CNCCCCN [peptoid 17] (H-[Nlys][Gly(N(CH2)2(3-indolyl))][Nspe][Nlys][Nspe][Nspe][Nlys][Nspe][Nspe][Nlys][Nspe][Gly(N(CH2)2(3-indolyl))]-NH2); 56.0
C[C@@H](c1ccccc1)N(CC(=O)N(CCCCO)CC(=O)N(CCc1c[nH]c2ccccc12)CC(=O)N(CCc1c[nH]c2ccccc12)CC(N)=O)C(=O)CN(CCCCO)C(=O)CN(CCCCO)C(=O)CN(C(=O)CN(C(=O)CN(CCCCO)C(=O)CN(C(=O)CN(C(=O)CNCCCCO)[C@@H](C)c1ccccc1)[C@@H](C)c1ccccc1)[C@@H](C)c1ccccc1)[C@@H](C)c1ccccc1; 64.7
C[C@H](NCC(=O)N(CCCCN)CC(=O)N(CC(=O)N(CC(=O)N(CCCCN)CC(=O)N(CC(=O)N(CC(=O)N(CCCCN)CC(=O)N(CC(=O)N(CC(=O)N(CCCCN)CC(=O)N(CC(N)=O)[C@@H](C)c1ccccc1)[C@@H](C)c1ccccc1)[C@@H](C)c1ccccc1)[C@@H](C)c1ccccc1)[C@@H](C)c1ccccc1)[C@@H](C)c1ccccc1)[C@@H](C)c1ccccc1)c1ccccc1 [peptoid 48] (H-[Nspe][Nlys][Nspe][Nspe][Nlys][Nspe][Nspe][Nlys][Nspe][Nspe][Nlys][Nspe]-NH2); 53.4

Shifting focus to the compound that follows.
The measured HPLC elution associated with C[C@@H](c1ccccc1)N(CC(N)=O)C(=O)CN(CCCCN)C(=O)CN(C(=O)CN(C(=O)CN(CCCCN)C(=O)CN(C(=O)CN(C(=O)CN(CCCCN)C(=O)CN(C(=O)CN(CCCCN)C(=O)CN(CCCCN)C(=O)CN(C(=O)CNCCc1c[nH]c2ccccc12)[C@@H](C)c1ccccc1)[C@@H](C)c1ccccc1)[C@@H](C)c1ccccc1)[C@@H](C)c1ccccc1)[C@@H](C)c1ccccc1)[C@@H](C)c1ccccc1 reads 50.5
